study.target: T1, soluble IGF1R (sIGF1R), extracellular domain of human insulin-like growth factor 1 receptor, carboxy-terminal … (human, UniProt P08069 31-932)
T1 construct: Bought from R&D Systems; GenBank NP-000866 is printed for the whole receptor; also called IFG1R
method: ELISA, serially diluted PG-peptide fusion on coated sIGF1R, one site binding fit
Reported log10(EC50) values are given for each entry in this list.
readout.label: log10(EC50) (log10 of the value in nM)

[[record]]
binder = "PG-peptide fusion of clone 16 (protein G IgG domain with peptide SEQ ID NO: 12 at its C-terminus) (other, also called PG-peptide fusion clone 16) YKLILNGKTLKGETTTEAVDAATAEKVFKQYANDNGVDGEWTYDDATKTFTVTEAGCPSPMPPVDPGFYSAIVQLCRE"
readout_label = "log10(EC50)"
value = 3.91

[[record]]
binder = "PG-peptide fusion of clone 14 (protein G IgG domain with peptide SEQ ID NO: 10 at its C-terminus) (other, also called PG-peptide fusion clone 14) YKLILNGKTLKGETTTEAVDAATAEKVFKQYANDNGVDGEWTYDDATKTFTVTEVECDTPSITFSPGLEALFWNTCSP"
readout_label = "log10(EC50)"
value = 2.93

[[record]]
binder = "PG-peptide fusion of clone 12 (protein G IgG domain with peptide SEQ ID NO: 8 at its C-terminus) (other, also called PG-peptide fusion clone 12) YKLILNGKTLKGETTTEAVDAATAEKVFKQYANDNGVDGEWTYDDATKTFTVTESNCPPLDMRLTELCVM"
readout_label = "log10(EC50)"
value = 3.26

[[record]]
binder = "PG-peptide fusion of clone 8 (protein G IgG domain with peptide SEQ ID NO: 4 at its C-terminus) (other, also called PG-peptide fusion clone 8) YKLILNGKTLKGETTTEAVDAATAEKVFKQYANDNGVDGEWTYDDATKTFTVTEPVCPSFCYDQYVCPT"
readout_label = "log10(EC50)"
value = 3.20

[[record]]
binder = "PG-peptide fusion of clone 5 (protein G IgG domain with peptide SEQ ID NO: 1 at its C-terminus) (other, also called PG-peptide fusion clone 5) YKLILNGKTLKGETTTEAVDAATAEKVFKQYANDNGVDGEWTYDDATKTFTVTETGCDFPELCRGCHP"
readout_label = "log10(EC50)"
value = 2.88

[[record]]
binder = "PG-peptide fusion of clone 6 (protein G IgG domain with peptide SEQ ID NO: 2 at its C-terminus) (other, also called PG-peptide fusion clone 6) YKLILNGKTLKGETTTEAVDAATAEKVFKQYANDNGVDGEWTYDDATKTFTVTEAECEWPWLTLELCQS"
readout_label = "log10(EC50)"
value = 3.00

[[record]]
binder = "PG-peptide fusion of clone 7 (protein G IgG domain with peptide SEQ ID NO: 3 at its C-terminus) (other, also called PG-peptide fusion clone 7) YKLILNGKTLKGETTTEAVDAATAEKVFKQYANDNGVDGEWTYDDATKTFTVTEPFCYSGGPLPYPCTY"
readout_label = "log10(EC50)"
value = 3.26

[[record]]
binder = "PG-peptide fusion of clone 11 (protein G IgG domain with peptide SEQ ID NO: 7 at its C-terminus) (other, also called PG-peptide fusion clone 11) YKLILNGKTLKGETTTEAVDAATAEKVFKQYANDNGVDGEWTYDDATKTFTVTEHTCFYPTLMPPELCFD"
readout_label = "log10(EC50)"
value = 3.08

[[record]]
binder = "PG-peptide fusion of clone 9 (protein G IgG domain with peptide SEQ ID NO: 5 at its C-terminus) (other, also called PG-peptide fusion clone 9) YKLILNGKTLKGETTTEAVDAATAEKVFKQYANDNGVDGEWTYDDATKTFTVTEFTCAVYSLSELDCRD"
readout_label = "log10(EC50)"
value = 3.54

[[record]]
binder = "PG-peptide fusion of clone 10 (protein G IgG domain with peptide SEQ ID NO: 6 at its C-terminus) (other, also called PG-peptide fusion clone 10) YKLILNGKTLKGETTTEAVDAATAEKVFKQYANDNGVDGEWTYDDATKTFTVTELSCYDPTLRTLYCHV"
readout_label = "log10(EC50)"
value = 3.63

